Source: paper PMC5843355

# tgt: HGPRT-I (Trypanosoma brucei brucei)
# Construct: 6x His-tag (N); AcTEV cleavage site (N); made in house; host or cells: E. coli One Shot BL21(DE3)
# Sequence (Q07010 2-210 limits assumed): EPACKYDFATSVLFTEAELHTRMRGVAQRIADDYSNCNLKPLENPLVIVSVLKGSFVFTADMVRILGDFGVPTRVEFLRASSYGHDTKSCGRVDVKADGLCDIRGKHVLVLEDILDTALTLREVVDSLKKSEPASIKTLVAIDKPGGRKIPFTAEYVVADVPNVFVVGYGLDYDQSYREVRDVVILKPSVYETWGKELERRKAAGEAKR
# assay_notes: Inhibition studies, Ki for recombinant HGPRT-I (spectrophotometric assay)
# Assay type: biochemical
# reported_conditions: HGPRT-I Ki, 0.1 M Tris pH 8.4, 0.11 M MgCl2, 25°C; parent ANP
assay_metric: Ki

[[record]]
compound = "Nc1nc2c(ncn2CC(COCP(=O)(O)O)COCP(=O)(O)O)c(=O)[nH]1 [compound 6]"
tgt = "HGPRT-I (Trypanosoma brucei brucei)"
measurement = "< 1 µM"

